- Tested on: Caco-2
- EXPERIMENT: relative viability EC50 (midpoint between 100% and the lowest measured viability); higher = less toxic
- DETAILS: 72 h
The following compounds are shown together with reported relative viability EC50 values.
READOUT NAME: relative viability EC50

                                   compound  measured_target  assay_result
0  CCCCC/C=C\C/C=C\C/C=C\CCCCC(=O)O [gamma-linolenic-acid]           Caco-2       > 10 µM
1  CC1(C)CCC(C)(C)c2cc(Cn3cccn3)c(/C=C/c3ccc(C(=O)O)cc3)cc21 [palovarotene]           Caco-2       > 10 µM
2  Cc1ccc(N2CCN(CC[C@H]3NC(=O)c4ccccc43)CC2)cc1C           Caco-2       > 10 µM
3          CN=c1nc(-c2ccccc2)n(-c2ccccc2)s1           Caco-2       > 10 µM
4  O=C(O)/C=C(/CC(=O)O)C(=O)O [cis-aconitic-acid]           Caco-2       > 10 µM
5  C=C1/C(=C\C=C2/CCC[C@]3(C)[C@@H]([C@H](C)/C=C/C=C/C(O)(CC)CC)CC[C@@H]23)C[C@@H](O)C[C@@H]1O [seocalcitol]           Caco-2       > 10 µM
6  COc1ccc2cc(-c3nc(-c4ccc([S+](C)[O-])cc4)[nH]c3-c3ccncc3)ccc2c1 (stereo not drawn) [tie2-kinase-inhibitor]           Caco-2       > 10 µM
7  NC(=O)c1ncn([C@@H]2O[C@H](CO)[C@@H](O)[C@H]2O)n1 [ribavirin]           Caco-2       > 10 µM
